Measured values drawn from patent US20230172958A1 for this set.

Test system: SARS-CoV-2
Assay: Anti SARS-CoV-2 IC50 estimation by qRT-PCR in VeroE6 cells
Assay type: cell-based
Settings: Severe acute respiratory syndrome coronavirus 2, Vero C1008; VeroE6, MOI 0.01, 48 hours, qRT-PCR E gene; read-out: IC50 value (μM) E gene
READOUT_NAME: IC50 (µM)
Field: numeric (µM). Do not append units.

Exercise: Find IC50 (SARS-CoV-2) for the entry COC1COC(Oc2ccc(-c3ccc4c(c3)OCO4)c3ccccc23)C(O)C1OC (stereo not shown) [Compound of Formula E]
Solution: 0.571

---

Assay: Cytotoxicity by Hoechst 33342 / Sytox orange staining
Format: cell-based
Conditions: African green monkey, Vero E6 cells, 48 hours, read-out: % Cell viability 48 hours
READOUT_NAME: viability at 48 h, 10 µM (%)
Field: numeric (%). Do not append units.

[[record]]
compound = "COC1COC(Oc2ccc(-c3ccc4c(c3)OCO4)c3ccccc23)C(O)C1OC (centres unmarked) [Compound of Formula E]"
readout_name = "viability at 48 h, 10 µM"
observed = 77.8


Proceed to the following item.
Exercise: Fill in the blank: the reported viability at 48 h, 10 µM of CCC(CC)COC(=O)[C@H](C)N[P@](=O)(OC[C@H]1O[C@@](C#N)(c2ccc3c(N)ncnn23)[C@H](O)[C@@H]1O)Oc1ccccc1 [Remdesivir, reference compound] is ____.
Solution: 94.4

---

Test system: SARS-CoV-2
Experiment: Anti SARS-CoV-2 IC50 estimation by qRT-PCR in VeroE6 cells
Type: cell-based
Details: Severe acute respiratory syndrome coronavirus 2, Vero C1008, 48 h, read-out: IC50 value (μM) N gene
READOUT_NAME: IC50 (µM)
Field: numeric (µM). Do not append units.

Exercise: Fill in the blank: the reported IC50 of CCC(CC)COC(=O)[C@H](C)N[P@](=O)(OC[C@H]1O[C@@](C#N)(c2ccc3c(N)ncnn23)[C@H](O)[C@@H]1O)Oc1ccccc1 [Remdesivir, reference compound] is ____.
Solution: 0.11

---

Test: Cytotoxicity by Hoechst 33342 / Sytox orange staining
Type: cell-based
Settings: African green monkey, Vero E6 cells, 24 hours, read-out: % Cell viability 24 hours
Let's look at some compounds and their measured viability at 24 h, 10 µM.
Field: numeric (%). Do not append units.

[[record]]
compound = "CCC(CC)COC(=O)[C@H](C)N[P@](=O)(OC[C@H]1O[C@@](C#N)(c2ccc3c(N)ncnn23)[C@H](O)[C@@H]1O)Oc1ccccc1 [Remdesivir, reference compound]"
observed = 99.2


Proceed to the following item.
Exercise: Fill in the blank: the reported viability at 24 h, 10 µM of COC1COC(Oc2ccc(-c3ccc4c(c3)OCO4)c3ccccc23)C(O)C1OC (centres unmarked) [Compound of Formula E] is ____.
Solution: 99.6

---

System: V-ATPase
Test: V-ATPase ELISA (Human V-Type Proton ATPase ELISA kit) on treated MDAMB231 cells
Assay type: cell-based
Settings: 100 nM (0.1 μM)/10,000 cells, 48 hours
So basically: reduction of V-ATPase (%) at 20% or higher? That is Fulfilled. Lower than 20%? That is Not fulfilled.

[[record]]
molecule = "COc1cc2c(OC(=O)C(c3ccccc3)C3CCCC3)c3c(c(-c4ccc5c(c4)OCO5)c2cc1OC)C(=O)OC3 (stereo not shown) [Compound of Formula C]"
classification = "Not fulfilled"


Exercise: Is reported reduction of V-ATPase (%) greater than or equal to 20% here: O=C(Nc1ccc(-c2ccc3c(c2)OCO3)c2ccccc12)c1ccco1 [Compound of Formula G]
Solution: Fulfilled

Exercise: Is reported reduction of V-ATPase (%) greater than or equal to 20% here: c1cnc2c(OCCN3CCOCC3)ccc(-c3ccc4c(c3)OCO4)c2c1 [Compound of Formula S]
Solution: Fulfilled

Exercise: Is reported reduction of V-ATPase (%) greater than or equal to 20% here: O=C(CN1CCNCC1)NCCOc1ccc(-c2ccc3c(c2)OCO3)c2ccccc12 [Compound of Formula T]
Solution: Fulfilled

Exercise: Is reported reduction of V-ATPase (%) greater than or equal to 20% here: O=S(=O)(Nc1ccc(-c2ccc3c(c2)OCO3)c2ccccc12)c1ccc(F)cc1 [Compound of Formula J]
Solution: Fulfilled
